Data origin, for the record: patent US7034056B2

Each entry below lists one item and its recorded pKi value.
- STUDY TARGET: hMCHR (MCH receptor) (Homo sapiens)
- Construct: (or internally produced); host or cells: CHO (Chinese hamster ovary) cells, membrane preparation
- Sequence (Q99705 whole entry): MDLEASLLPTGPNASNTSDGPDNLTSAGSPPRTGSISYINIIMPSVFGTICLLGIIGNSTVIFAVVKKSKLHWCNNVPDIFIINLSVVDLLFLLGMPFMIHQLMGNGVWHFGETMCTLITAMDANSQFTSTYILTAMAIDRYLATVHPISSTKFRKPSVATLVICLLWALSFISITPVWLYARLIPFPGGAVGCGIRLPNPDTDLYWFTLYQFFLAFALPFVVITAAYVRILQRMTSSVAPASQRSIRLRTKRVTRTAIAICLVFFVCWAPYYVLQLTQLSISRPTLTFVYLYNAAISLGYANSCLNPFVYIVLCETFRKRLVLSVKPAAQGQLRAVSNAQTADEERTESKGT
- METHOD DESCRIPTION: MCH Assay PCOP Protocol ([125I]-MCH SPA binding to hMCHR-CHO membranes)
- CONDITION INFO: [125I]-MCH 0.5 nM, hMCHR-CHO membranes; read-out: Activity (ranges of Ki values)
pKi: −log10 of the molar value.

Sample answers from the record:
| COMPOUND | pKi |
| --- | --- |
| COc1ccccc1-c1cccc(C(CCNC2CCCC2)CNC(=O)Nc2cc(Cl)cc(Cl)c2)c1 (stereo not shown) | 5.60 to 6.30 |
| CN(C)CCCNCCC(CNC(=O)Nc1cc(Cl)cc(Cl)c1)c1cccc(-c2ccc(C(F)(F)F)cc2)c1 (stereo not shown) | 6.30 to 7.29 |
| N#Cc1cccc(-c2ccc(C(CCNC3CCCC3)CNC(=O)c3cccc(F)c3)cc2)c1 (stereo not shown) | 6.30 to 7.29 |
| O=C(NCC(CCNC1CCCC1)c1ccc2c(c1)OCO2)Nc1ccc(F)c([N+](=O)[O-])c1 (stereo not shown) | 5.60 to 6.30 |
| COCC(=O)NC1CCN(CCC(CNC(=O)Nc2cc(Cl)cc(Cl)c2)c2ccc(Cl)c(Cl)c2)CC1 (stereo not shown) | 6.30 to 7.29 |
| Cc1ccc(C(CCN2CCC(NC(=O)c3ccno3)C2)CNC(=O)Nc2cc(Cl)cc(Cl)c2)cc1 (stereo not shown) | 5.60 to 6.30 |
| CN(C)CCC(CNC(=O)Nc1cccnc1)c1ccc(-c2cccc(C#N)c2)cc1 (stereo not shown) | 6.30 to 7.29 |
| O=C(NCC(CCNC1CCCC1)c1ccc2c(c1)OCO2)Nc1ccc(Cl)c([N+](=O)[O-])c1 (stereo not shown) | 6.30 to 7.29 |
| CN(C)CCCNCCC(C)(CNC(=O)Nc1cc(Cl)cc(Cl)c1)c1ccc(Cl)c(Cl)c1 (stereo not shown) | 6.30 to 7.29 |

Shifting focus to the compound that follows.
Entry COCC(=O)NC1CCN(CCC(CNC(=O)Nc2cc(Cl)cc(Cl)c2)c2ccc(Cl)c(Cl)c2)C1 (stereo not shown) , hMCHR (MCH receptor) (Homo sapiens) data, pKi value: 6.30 to 7.29
